src = the supplement of paper PMC9170038

Tested on: MS2 coat protein
METHOD NOTES: apparent KD of MS2 coat protein; designed switch direction (-1 OFF switch, 1 ON switch): -1; higher = weaker reporter binding
CONDITION SET: input ligand: FMN 200 uM
apparent KD of MS2 coat protein vs 40 nM: at or above is criterion met, below is criterion not met.

[
  {
    "SEQUENCE CHAIN": "CUAAAAGUGAUCACAGGAACAUGAGGAUCACCCAUGUGCCUCAAGGAUAUGCACGGCUAUCCAGGGUAGAAGGUGAGAAUGCAC [Eternabot solution 30] (Eterna round: R96, puzzle: Exclusion NG 3)",
    "CAT": "criterion met"
  },
  {
    "SEQUENCE CHAIN": "UGAGUGCUGCGAGGAUAUACAUGAGGAUCACCCAUGUAUACCUGUGAGGCUUUGCCUCACAGGUAGUAGAAGGCGCAGUACUCU [Mat - Exclusion NG 2 - Mod of JL - D44] (Eterna round: R96, puzzle: Exclusion NG 2)",
    "CAT": "criterion not met"
  },
  {
    "SEQUENCE CHAIN": "GCCUCACUUGAGGAUCACCCAAGUCAGGAUAUUCACUGAGCUGCAUAACAACUCGGCCGAAGAAGGGAUUCGGG [Edlacebe] (Eterna round: R97, puzzle: Exclusion 1)",
    "CAT": "criterion met"
  },
  {
    "SEQUENCE CHAIN": "CUCGUGUAAGGAUAUACGAGUCACGGAAAUAAAACGUGAAGGUAGAAGGUACAUGAGGAUCACCCAUGUAAAAC [Mod of Anonveat 2 - Jieux - Exclusion 4] (Eterna round: R97, puzzle: Exclusion 4)",
    "CAT": "criterion met"
  },
  {
    "SEQUENCE CHAIN": "AUAAUUAAUCGAGGAUAUCAGCACGUUUAGUGCUGAGAAGGCGACAUGAGGAUCACCCAUGUGAUCAAUUAAUAUUAAUAUUAU [ENG1/11-C2] (Eterna round: R96, puzzle: Exclusion NG 1)",
    "CAT": "criterion met"
  },
  {
    "SEQUENCE CHAIN": "UGCAGACGAGGAUAUGAUAAAGAUCACAUGAGGAUCACCCAUGUAGCGUCGAUAGACGCAUCAGAAGGCGUCUGCA [E5/1-A2] (Eterna round: R97, puzzle: Exclusion 5)",
    "CAT": "criterion not met"
  },
  {
    "SEQUENCE CHAIN": "GCGACACGAGGAUAUCGGGUCUCUAACAUGAGGAUCACCCAUGUGGCGGCAGGCGUAAGACGAGAAGGCGUAUUCA [Eternabot (L2) Solution 65] (Eterna round: R97, puzzle: Exclusion 5)",
    "CAT": "criterion not met"
  },
  {
    "SEQUENCE CHAIN": "AGUAAGCUAGGAUAUGCUUUGGGAAAGCCUUCCUUCGAUAAACUUGAGGAUCACCCAAGUAGAAGGAGCUAAAU [jl-ex2.4.48 ViennaUCT mod] (Eterna round: R97, puzzle: Exclusion 2)",
    "CAT": "criterion not met"
  },
  {
    "SEQUENCE CHAIN": "AUAUUGUGAGGAUAUGUACUUAGUAUCGAAAGAUACUAAGUUCAGAAGGCACAUGAGGAUCACCCAUGUUUCUC [Long static hairpin v13] (Eterna round: R97, puzzle: Exclusion 4)",
    "CAT": "criterion met"
  },
  {
    "SEQUENCE CHAIN": "UCGUUUCGUGUAGGAUAUUGGCCUUCUCUGGGUCGAGAAGGACAUGAGGAUCACCCAUGUAUGUUAUUAUCACGCGUGGCGCAU [Design 83] (Eterna round: R96, puzzle: Exclusion NG 1)",
    "CAT": "criterion not met"
  },
  {
    "SEQUENCE CHAIN": "CGUUGUCAAGGAUAUAUAGAGCUAUACAUGAGGAUCACCCAUGUGGUUAGUGUUGUGUGAGUAGAAGGUGGAAUGU [Eternabot (L2) Solution 99] (Eterna round: R97, puzzle: Exclusion 5)",
    "CAT": "criterion met"
  },
  {
    "SEQUENCE CHAIN": "AAGUGGAAAACACAAUUGUACAUGAGGAUCACCCAUGUAUGUACGAAAUAUAGACAAGCUGUAUGCUCGACAACACA [Sensor v2 M17] (Eterna round: R96, puzzle: Sensor v2, turn-off variant)",
    "CAT": "criterion not met"
  },
  {
    "SEQUENCE CHAIN": "CACCGUUACAGAGGAUAUGGUACAUGAGGAUCACCCAUGUAAUAAAUGAGAAUUUCGGAUGUAUUCCAGAAGGCUGAAAUCGGC [Ostricism 64 - Jieux - Exclusion NG 2] (Eterna round: R96, puzzle: Exclusion NG 2)",
    "CAT": "criterion met"
  },
  {
    "SEQUENCE CHAIN": "AGAUUACGUUAGGAUAUCCGGCCUGACGAGGAUGGAGAAGGAGCGACAUGAGGAUCACCCAUGUGUGGCACUCC [Eternabot (L1) Solution 76] (Eterna round: R97, puzzle: Exclusion 6)",
    "CAT": "criterion not met"
  },
  {
    "SEQUENCE CHAIN": "CCCACAUGAGGAUAUCCAUCUGGAUCAGACAAGAUCCUGAUGGAGAAGGUACAUGAGGAUCACCCAUGUGUGGG [Mat - Exclusion 4 - Eli Mod - D60] (Eterna round: R97, puzzle: Exclusion 4)",
    "CAT": "criterion met"
  },
  {
    "SEQUENCE CHAIN": "UAAUACAAGUAGAGAUUCUACAUGAGGAUCACCCAUGUGCUCGUCUUAUAAAGUACUAUCACGAAAGUGAUAGUACA [Mat - Sensor v3 - turn-off var 1 - Eli Mod - D97] (Eterna round: R96, puzzle: Sensor v3, turn-off variant 1)",
    "CAT": "criterion not met"
  },
  {
    "SEQUENCE CHAIN": "GGGUGACAUGAGGAUCACCCAUGUCAGGAUAUGAUUCUGCUUGGGAAACCGAGUAGAAUCAGAAGGGACAUCCC (Eterna round: R97, puzzle: Exclusion 1)",
    "CAT": "criterion met"
  },
  {
    "SEQUENCE CHAIN": "UUAUUAUAUGUAGGAUAUGCAUAUUGUUGUUAUGCAGAAGGACAUGAGGAUCACCCAUGUAUAUUAUUGUUGUGUAUUAUAUAU [Title] (Eterna round: R96, puzzle: Exclusion NG 1)",
    "CAT": "criterion met"
  }
]
